# Measured On: T1, AFP158/HLA-A*02:01 complex (human)
# T1 construct: flowed as analyte in SPR
# Assay Notes: SPR, fold vs AS170036 VL1VH1
Observable: Affinity increase (fold)
Numbers only, in fold.

>>> val("AS170036 VL1VH1-VHG56N (scFv) scFv: QSALTQPRSVSGSPGQSVTISCAGTSSDVGSENYVSWYQQHPGKAPKLMIYQVNKRASGVPDRFSGSKSGNTASLTISGLQAEDEADYYCASYRSSDHNIVFGGGTKLTVLGGGGSGGGGSGGGGSEVQLVESGGGLVQPGGSLRLSCAASGFTFSSYAMSWVRQAPGKGLEWVSTINSGTNSPYYADSVKGRFTISRDNSKNTLYLQMNSLRAEDTAVYYCAKNFFDGSWFLGPPAMDYWGQGTLVTVSSHHHHHH")
2.5
>>> val("AS170036 VL1VH1-VHG56F (scFv) scFv: QSALTQPRSVSGSPGQSVTISCAGTSSDVGSENYVSWYQQHPGKAPKLMIYQVNKRASGVPDRFSGSKSGNTASLTISGLQAEDEADYYCASYRSSDHNIVFGGGTKLTVLGGGGSGGGGSGGGGSEVQLVESGGGLVQPGGSLRLSCAASGFTFSSYAMSWVRQAPGKGLEWVSTINSGTFSPYYADSVKGRFTISRDNSKNTLYLQMNSLRAEDTAVYYCAKNFFDGSWFLGPPAMDYWGQGTLVTVSSHHHHHH")
2.3
>>> val("AS170036 VL1VH1-VLH98F (scFv) scFv: QSALTQPRSVSGSPGQSVTISCAGTSSDVGSENYVSWYQQHPGKAPKLMIYQVNKRASGVPDRFSGSKSGNTASLTISGLQAEDEADYYCASYRSSDFNIVFGGGTKLTVLGGGGSGGGGSGGGGSEVQLVESGGGLVQPGGSLRLSCAASGFTFSSYAMSWVRQAPGKGLEWVSTINSGTGSPYYADSVKGRFTISRDNSKNTLYLQMNSLRAEDTAVYYCAKNFFDGSWFLGPPAMDYWGQGTLVTVSSHHHHHH")
3.3
>>> val("AS170036 VL1VH1-VLH98A (scFv) scFv: QSALTQPRSVSGSPGQSVTISCAGTSSDVGSENYVSWYQQHPGKAPKLMIYQVNKRASGVPDRFSGSKSGNTASLTISGLQAEDEADYYCASYRSSDANIVFGGGTKLTVLGGGGSGGGGSGGGGSEVQLVESGGGLVQPGGSLRLSCAASGFTFSSYAMSWVRQAPGKGLEWVSTINSGTGSPYYADSVKGRFTISRDNSKNTLYLQMNSLRAEDTAVYYCAKNFFDGSWFLGPPAMDYWGQGTLVTVSSHHHHHH")
2.3
>>> val("AS170036 VL1VH1-VHS57R (scFv) scFv: QSALTQPRSVSGSPGQSVTISCAGTSSDVGSENYVSWYQQHPGKAPKLMIYQVNKRASGVPDRFSGSKSGNTASLTISGLQAEDEADYYCASYRSSDHNIVFGGGTKLTVLGGGGSGGGGSGGGGSEVQLVESGGGLVQPGGSLRLSCAASGFTFSSYAMSWVRQAPGKGLEWVSTINSGTGRPYYADSVKGRFTISRDNSKNTLYLQMNSLRAEDTAVYYCAKNFFDGSWFLGPPAMDYWGQGTLVTVSSHHHHHH")
2.8

Would you be so kind as to report Affinity increase for each listed record?
1. AS170036 VL1VH1-VHS57Q (scFv) scFv: QSALTQPRSVSGSPGQSVTISCAGTSSDVGSENYVSWYQQHPGKAPKLMIYQVNKRASGVPDRFSGSKSGNTASLTISGLQAEDEADYYCASYRSSDHNIVFGGGTKLTVLGGGGSGGGGSGGGGSEVQLVESGGGLVQPGGSLRLSCAASGFTFSSYAMSWVRQAPGKGLEWVSTINSGTGQPYYADSVKGRFTISRDNSKNTLYLQMNSLRAEDTAVYYCAKNFFDGSWFLGPPAMDYWGQGTLVTVSSHHHHHH
2. AS170036 VL1VH1-VHG108S (scFv) scFv: QSALTQPRSVSGSPGQSVTISCAGTSSDVGSENYVSWYQQHPGKAPKLMIYQVNKRASGVPDRFSGSKSGNTASLTISGLQAEDEADYYCASYRSSDHNIVFGGGTKLTVLGGGGSGGGGSGGGGSEVQLVESGGGLVQPGGSLRLSCAASGFTFSSYAMSWVRQAPGKGLEWVSTINSGTGSPYYADSVKGRFTISRDNSKNTLYLQMNSLRAEDTAVYYCAKNFFDGSWFLSPPAMDYWGQGTLVTVSSHHHHHH
3. AS170036 VL1VH1-VHS57K (scFv) scFv: QSALTQPRSVSGSPGQSVTISCAGTSSDVGSENYVSWYQQHPGKAPKLMIYQVNKRASGVPDRFSGSKSGNTASLTISGLQAEDEADYYCASYRSSDHNIVFGGGTKLTVLGGGGSGGGGSGGGGSEVQLVESGGGLVQPGGSLRLSCAASGFTFSSYAMSWVRQAPGKGLEWVSTINSGTGKPYYADSVKGRFTISRDNSKNTLYLQMNSLRAEDTAVYYCAKNFFDGSWFLGPPAMDYWGQGTLVTVSSHHHHHH
4. AS170036 VL1VH1-VLE32W (scFv) scFv: QSALTQPRSVSGSPGQSVTISCAGTSSDVGSWNYVSWYQQHPGKAPKLMIYQVNKRASGVPDRFSGSKSGNTASLTISGLQAEDEADYYCASYRSSDHNIVFGGGTKLTVLGGGGSGGGGSGGGGSEVQLVESGGGLVQPGGSLRLSCAASGFTFSSYAMSWVRQAPGKGLEWVSTINSGTGSPYYADSVKGRFTISRDNSKNTLYLQMNSLRAEDTAVYYCAKNFFDGSWFLGPPAMDYWGQGTLVTVSSHHHHHH

1. 2.4
2. 2.8
3. 4.4
4. 2.4
